Test system: Yap1 mRNA
Test: Antisense inhibition of human Yap1 in A-431 cells by cEt gapmers, single dose (Example 3, RTS36584)
Assay type: cell-based
Settings: Table 27; Yap1 mRNA by 3-10-3 cEt gapmers targeting SEQ ID NO.: 1, and 2; percent of untreated control
Strand notation (5' to 3'): a small letter for the sugar, then the base; units joined by * are phosphorothioate-linked, units joined directly phosphodiester-linked; [ ] holds rarer units or linkages, { } end groups; capitals alone tell only the bases. k = constrained ethyl (cEt); [5mC] = 5-methylcytosine; d = 2'-deoxy (DNA)
Overview of reported YAP1 (% UTC) across a group of substances:

- Substance: "1074285 (antisense kG*k[5mC]*kA*dA*dA*dA*d[5mC]*dG*dA*dG*dG*dG*dT*k[5mC]*kA*kA) [compound 1074285]"
  Units: "% UTC"
  YAP1 (% UTC): 17
- Substance: "1074829 (kG*kG*kA*dT*dA*dA*dA*dA*dT*d[5mC]*d[5mC]*dA*d[5mC]*k[5mC]*kT*kG; antisense) [compound 1074829]"
  Units: "% UTC"
  YAP1 (% UTC): 92
- Substance: "1075437 (antisense kT*kA*kT*dT*dA*dG*dT*dA*d[5mC]*dG*dA*dG*d[5mC]*kT*kA*k[5mC]) [compound 1075437]"
  Units: "% UTC"
  YAP1 (% UTC): 85
- Substance: "1075085 (antisense kT*kG*k[5mC]*dG*dG*dA*dA*dA*d[5mC]*dA*dA*dG*dT*kG*kT*kA) [compound 1075085]"
  Units: "% UTC"
  YAP1 (% UTC): 11
- Substance: "1075533 (kG*kA*kT*dT*dA*d[5mC]*dT*d[5mC]*dA*dG*d[5mC]*dT*dA*kT*kG*kT; antisense) [compound 1075533]"
  Units: "% UTC"
  YAP1 (% UTC): 65
- Substance: "1076301 (kG*kT*kA*dT*dA*dA*dG*dA*d[5mC]*d[5mC]*dT*dT*dG*kG*kG*kA; antisense) [compound 1076301]"
  Units: "% UTC"
  YAP1 (% UTC): 34
- Substance: "1074253 (antisense kT*k[5mC]*kT*dG*dG*dG*dA*d[5mC]*dA*dG*d[5mC]*dA*dT*kG*kG*k[5mC]) [compound 1074253]"
  Units: "% UTC"
  YAP1 (% UTC): 11
- Substance: "1075821 (k[5mC]*kT*kT*dA*dA*d[5mC]*dT*dT*d[5mC]*d[5mC]*d[5mC]*dA*d[5mC]*kT*k[5mC]*kG; antisense) [compound 1075821]"
  Units: "% UTC"
  YAP1 (% UTC): 22
- Substance: "1075181 (kT*kT*kA*dT*dA*dT*dT*dA*d[5mC]*dT*dA*d[5mC]*dA*kA*k[5mC]*k[5mC]; antisense) [compound 1075181]"
  Units: "% UTC"
  YAP1 (% UTC): 15
- Substance: "1075309 (antisense kT*kA*kA*dT*dT*dA*dA*dA*d[5mC]*dG*dA*dA*dA*k[5mC]*kA*k[5mC]) [compound 1075309]"
  Units: "% UTC"
  YAP1 (% UTC): 110
- Substance: "1075789 (kA*kA*kT*dT*dA*d[5mC]*dA*dA*dG*d[5mC]*dT*dA*dA*kT*kG*k[5mC]; antisense) [compound 1075789]"
  Units: "% UTC"
  YAP1 (% UTC): 79
- Substance: "1074445 (kT*kG*kA*dT*dA*dG*d[5mC]*dA*d[5mC]*dT*dA*dG*dG*kA*kG*kG; antisense) [compound 1074445]"
  Units: "% UTC"
  YAP1 (% UTC): 6
- Substance: "1074669 (antisense kA*kT*k[5mC]*d[5mC]*d[5mC]*dA*dA*d[5mC]*dA*dA*d[5mC]*dA*dT*kG*k[5mC]*kT) [compound 1074669]"
  Units: "% UTC"
  YAP1 (% UTC): 13
- Substance: "1075853 (kG*kA*kG*d[5mC]*dG*dA*dT*dA*dA*dG*d[5mC]*dT*dG*kT*kA*kT; antisense) [compound 1075853]"
  Units: "% UTC"
  YAP1 (% UTC): 72
- Substance: "1074701 (antisense kG*kT*kG*dT*dA*dA*dG*dA*d[5mC]*dA*dA*dG*dT*k[5mC]*kT*kT) [compound 1074701]"
  Units: "% UTC"
  YAP1 (% UTC): 17
- Substance: "1075405 (antisense k[5mC]*kT*kA*dT*dA*dT*dA*dA*d[5mC]*d[5mC]*dT*dG*dA*kA*k[5mC]*kT) [compound 1075405]"
  Units: "% UTC"
  YAP1 (% UTC): 84
- Substance: "1076333 (antisense k[5mC]*kT*kA*dT*dA*dA*dG*dG*dA*dA*dT*dG*dG*k[5mC]*kA*kA) [compound 1076333]"
  Units: "% UTC"
  YAP1 (% UTC): 97
- Substance: "1074637 (antisense kA*kA*kT*d[5mC]*dT*dA*dT*d[5mC]*dT*dT*d[5mC]*d[5mC]*d[5mC]*kA*kA*kG) [compound 1074637]"
  Units: "% UTC"
  YAP1 (% UTC): 36
- Substance: "1074189 (antisense kG*kG*k[5mC]*dT*dG*d[5mC]*dG*dA*dA*dG*dG*d[5mC]*dG*kG*k[5mC]*kT) [compound 1074189]"
  Units: "% UTC"
  YAP1 (% UTC): 96
- Substance: "1075245 (k[5mC]*k[5mC]*kT*dA*dA*dT*dA*dT*dG*d[5mC]*dT*dA*dT*kT*kG*kT; antisense) [compound 1075245]"
  Units: "% UTC"
  YAP1 (% UTC): 34
- Substance: "1074893 (antisense kG*k[5mC]*kT*dG*dA*dA*dG*dT*dT*dT*dA*dG*d[5mC]*k[5mC]*kT*kG) [compound 1074893]"
  Units: "% UTC"
  YAP1 (% UTC): 78
- Substance: "1074317 (antisense kG*kA*kG*dA*dA*dT*dT*dT*dG*d[5mC]*dT*dG*dT*kG*k[5mC]*kT) [compound 1074317]"
  Units: "% UTC"
  YAP1 (% UTC): 12
- Substance: "1076557 (kA*kA*k[5mC]*dA*dA*dA*dT*dA*d[5mC]*d[5mC]*dA*dG*dG*kT*kT*k[5mC]; antisense) [compound 1076557]"
  Units: "% UTC"
  YAP1 (% UTC): 111
- Substance: "1076045 (kG*kT*kG*d[5mC]*dA*dA*dT*dA*dA*dA*dT*dA*dG*kT*kT*k[5mC]; antisense) [compound 1076045]"
  Units: "% UTC"
  YAP1 (% UTC): 11
- Substance: "1076013 (kG*kT*kT*dT*dA*dA*dT*dA*d[5mC]*d[5mC]*dT*d[5mC]*dT*kG*kA*k[5mC]; antisense) [compound 1076013]"
  Units: "% UTC"
  YAP1 (% UTC): 76
